Tested on: human CD34+ CB cells
Format: cell-based
Details: prestimulated 16 hours and transduced 6 hours in presence of compound, FACS after 3 additional days (FIGS. 16A, 16B)
observed_property: gene transfer efficiency to human CD34+ CB cells and CD34+ subsets, variants of Cmpd1

# molecule, system, recorded_result
measured = [
    ("COC(=O)c1ccc2c(c1)[nH]c1nc(-c3ccccc3)nc(NCCCN3CCCCC3)c12 [Cmpd 8, 2,2,2-trifluoroacetate]", "human CD34+ CB cells", "not observed"),
    ("CCCOC(=O)c1ccc2c(c1)[nH]c1ncnc(NCCCN3CCCCC3)c12 [Cmpd 7]", "human CD34+ CB cells", "not observed"),
]

====

Test system: human CD34+ cells
Assay: Expansion of human CD34+ cells (EC50, CD34+CD45RA- cell count)
Format: cell-based
Details: Homo sapiens, concentration that results in a 50% increase in CD34+CD45RA- cell count compared to vehicle cultures (DMSO); read-out: Biological data (EC50)*
pEC50: −log10 of the molar value.
observed_property: pEC50

# molecule, pEC50
measured = [
    ("COC(=O)c1ccc2c(c1)[nH]c1nc(Cc3ccsc3)nc(NCCCN3CCCCC3)c12", "> 7.00"),
]

I would be grateful if you could provide pEC50 for each of the following entries.
1. COC(=O)c1ccc2c(c1)[nH]c1ncnc(NCCCN(C)C)c12
2. COC(=O)c1cnc2c(c1)[nH]c1nc(Cc3ccccc3)nc(NCC(C)CN(C)C)c12 (stereo not drawn)
3. COC(=O)c1ccc2c(c1)[nH]c1nc(Cc3cccc(OC)c3)nc(NCCCN3CCCCC3)c12
4. COC(=O)c1ccc2c(c1)[nH]c1ncnc(NCCCN3CCCCC3C)c12 (stereo not drawn)

Output:
6.00 to 6.30
6.00 to 6.30
> 7.00
6.60 to 7.00

Input: Consider the molecule COC(=O)c1ccc2c(c1)[nH]c1ncnc(NCCCN3CCOCC3)c12 and give its recorded pEC50.
Output: < 6.00

====

Exercise: for every item that follows, state its recorded pEC50.
System: human CD34+ cells
Assay: Expansion of human CD34+ cells (EC50, CD34+CD45RA- cell count)
Format: cell-based
Conditions: Homo sapiens, concentration that results in a 50% increase in CD34+CD45RA- cell count compared to vehicle cultures (DMSO); read-out: Biological data (EC50)*
pEC50: −log10 of the molar value.

Recorded pEC50, per entry:
# compound, observed_property, recorded_result
measured = [
    ("CNCCCNc1nc(Cc2ccccc2C)nc2[nH]c3cc(C(=O)OC)cnc3c12 [Cmpd 68]", "pEC50", "6.00 to 6.30"),
    ("COC(=O)c1cnc2c(c1)[nH]c1nc(Cc3cccc(OC)c3)nc(NCCCN3CCCCC3C)c12 (stereo not shown) [Cmpd 63]", "pEC50", "6.30 to 6.60"),
    ("COC(=O)c1ccc2c(c1)[nH]c1cc(Cc3cccnc3)nc(N3CCC(N4CCCC4)CC3)c12 [Cmpd 86]", "pEC50", "< 6.00"),
    ("Cn1nnc(-c2cnc3c(c2)[nH]c2nc(Cc4ccccc4)nc(N[C@H]4CC[C@H](N)CC4)c23)n1 [Cmpd 69]", "pEC50", "6.30 to 6.60"),
    ("COC(=O)c1ccc2c(c1)[nH]c1ccnc(NCCCN3CCCCC3)c12 [Cmpd 76]", "pEC50", "< 6.00"),
    ("COC(=O)c1ccc2c(c1)[nH]c1nc(Cc3cccnc3)nc(NCCCN3CCCCC3)c12 [Cmpd 22]", "pEC50", "> 7.00"),
]

Please supply pEC50 for each of the following items, keeping them in order.
1. COC(=O)c1ccc2c(c1)[nH]c1cc(Cc3cccnc3)nc(NCCCN3CCOCC3)c12 [Cmpd 84]
2. COC(=O)c1ccc2c(c1)[nH]c1nc(Cc3cccc(C4(C(F)(F)F)N=N4)c3)nc(NCCCN3CCCCC3)c12 [Cmpd 32]
3. COC(=O)c1ccc2c(c1)[nH]c1ncnc(NCCCN)c12 [Cmpd 15]
4. COC(=O)c1cnc2c(c1)[nH]c1nc(Cc3cccc(F)c3)nc(NCCCN3CCCCC3)c12 [Cmpd 70]
5. COC(=O)c1ccc2c(c1)[nH]c1nc(Cc3cnccn3)nc(NCCCN3CCCCC3)c12 [Cmpd 24]
6. COC(=O)c1ccc2c(c1)[nH]c1nc(Cc3cccc(F)c3)nc(NCCCN3CCCCC3)c12 [Cmpd 4]

Output:
1: 6.00 to 6.30; 2: > 7.00; 3: 6.30 to 6.60; 4: < 6.00; 5: 6.00 to 6.30; 6: > 7.00

Look at each compound and report its pEC50.
1. COC(=O)c1ccc2c(c1)[nH]c1cc(Cc3ccccc3)nc(N(C)CCCN(C)C)c12 [Cmpd 79]
2. COC(=O)c1ccc2c(c1)[nH]c1ncnc(NCCCCN(C)C)c12 [Cmpd 10]
3. COC(=O)c1ccc2c(c1)[nH]c1nc(Cc3ccccc3)nc(NCCCN(C)CCCN)c12 [Cmpd 50]

Output:
["> 7.00", "6.30 to 6.60", "> 7.00"]

Input: Return pEC50 for the following compound: Cn1nnc(-c2ccc3c(c2)[nH]c2cc(Cc4ccccc4)nc(NCCCN4CCCCC4)c23)n1 [Cmpd 80]
Output: 6.60 to 7.00

Taken from patent US10273503B2.
